Each entry below carries its reported cytochrome c release ratio.
# METHOD: inhibitors of mitochondrial cytochrome c release, biochemical, purified mitochondria (AID 1603);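 also: mouse liver mitochondria challenged with calcium chloride; signal normalized to the plate average as 100%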
# ASSAY_CONDITIONS: stronger effect = lower value
RESULT_TYPE: cytochrome c release ratio

* FC(F)(F)c1cccc(N2CCNCC2)c1 | 0.84
* CCCCC[C@H]1C(=O)O[C@H](C)[C@H](NC(=O)c2cccc(NC=O)c2O)C(=O)O[C@@H](C)[C@@H]1OC(=O)CC(C)C | 0.26
* CN1C2CCC1C(C(=O)O)C(OC(=O)c1ccccc1)C2 (stereo not given) | 1.03
* C[C@]12CCC3C(CC[C@]4(O)C[C@@H](O)CC[C@]34C=O)[C@@]1(O)CCC2C1=CC(=O)OC1 (stereo not given in full) | 1.29
* C=CCC1(CC(C)C)C(=O)NC(=O)NC1=O | 0.94

Cited source: PubChem BioAssay
